tested on: Sinapis arvensis; assay: Weed control pre-emergence (greenhouse pot test); type: in vivo; conditions: pre-emergence, 2,5 kg a.i./ha, visual rating after 3-4 weeks
This listing pairs compounds with measured Herbizide Wirkung im Vorauflauf SIA.

CCOC(=O)COC(OC(=O)c1cc(Oc2ccc(C(F)(F)F)cc2Cl)ccc1[N+](=O)[O-])C(Cl)(Cl)Cl (stereo not shown) :: 5 (= 80 - 100 % Wirkung bzw. Schaden)
CCOC(=O)C(C)(C)OC(OC(=O)c1cc(Oc2ccc(C(F)(F)F)cc2Cl)ccc1[N+](=O)[O-])C(Cl)(Cl)Cl (stereo not shown) :: 5 (= 80 - 100 % Wirkung bzw. Schaden)

Which Herbizide Wirkung im Vorauflauf SIA is reported for this compound? CC1(C)OCC(COC(OC(=O)c2cc(Oc3ccc(C(F)(F)F)cc3Cl)ccc2[N+](=O)[O-])C(Cl)(Cl)Cl)O1 (stereo not shown) 2 (= 20 - 40 % Wirkung bzw. Schaden)

Next entry: COC(=O)CC(OC(OC(=O)c1cc(Oc2ccc(C(F)(F)F)cc2Cl)ccc1[N+](=O)[O-])C(Cl)(Cl)Cl)C(=O)OC (stereo not shown) 5 (= 80 - 100 % Wirkung bzw. Schaden)
